test system: P388 leukemia ip, CD2F1 mice, survival T/C; experiment: NCI In Vivo Anticancer Drug Screen. Data for tumor model P388 Leukemia (intraperitoneal) in CD2F1 (CDF1) mice; conditions: endpoint: median survival time; dose: 50.0 mg/kg/injection; schedule: Q01DX009 (ip); vehicle: saline with Tween-80; higher = longer survival
Toxic doses and inconclusive results are not listed.
reported_metric: T/C

Request: I would be grateful if you could share the reported T/C for CCCCCCC(=O)/C=C/c1cccc(OCc2ccc(Cl)cc2)c1 .
Result: 101 % of control

Request: Continue with O=C(CC(O)(C(F)(F)F)C(F)(F)F)c1cc(CC(=O)C(O)(C(F)(F)F)C(F)(F)F)cc(CC(=O)C(O)(C(F)(F)F)C(F)(F)F)c1
Result: 103 % of control

Request: Another compound: CN(C)C=Nc1ccccc1C#N
Result: 105 % of control

Request: Also need COc1ccc(CC(=O)Cc2ccc(OC)c(OC)c2)cc1OC , thanks.
Result: 101 % of control

Request: Field entry: CCOC(=O)c1ccc(NC(=O)Nc2ncc(Cl)cc2Cl)cc1
Result: 89 % of control

Request: Another compound to check: CCn1c2ccccc2nc2cc3c(cc21)c(Cl)c(=O)c1ccccc13
Result: 108 % of control

Request: Moving on to Cc1cc(NCCCN(C)C)c2ccc3cc(NCCCN(C)C)c(C)nc3c2n1
Result: 104 % of control

Request: How about O=[N+]([O-])/C=C\c1cc2c3c(c1)CCCN3CCC2 ?
Result: 109 % of control

Request: # iterate: Cn1c(=O)c2nc(-c3ccccc3)c(-c3ccccc3)nc2n(C)c1=O
Result: 107 % of control

Request: And CCCCNC(=S)N/N=C/c1ccccn1 ?
Result: 94 % of control

Request: // same read-out, input: O=C(Nc1ccccc1)/C(N=Nc1cc(S(=O)(=O)O)ccc1Cl)=N/Nc1cc(S(=O)(=O)O)ccc1Cl
Result: 98 % of control

Request: Continue with CN(C)C(=S)/N=C1\SCS(=O)(=O)N1C
Result: 110 % of control

Request: Another: CCCCCCCCOCC(=O)OC
Result: 106 % of control

Request: Please answer likewise for NS(=O)(=O)/C(Br)=C/c1ccccc1
Result: 90 % of control

Request: Here is the next compound: Cc1ccc2ccc(N(C)C)cc2n1
Result: 100 % of control

Request: // same read-out, input: CCOc1n[n+]([O-])c(Cl)cc1[N+](=O)[O-]
Result: 102 % of control

Request: Record: CC(C)(C)N=C(CCN1CCN(CCC(=NC(C)(C)C)Nc2ccc([N+](=O)[O-])cc2)CC1)Nc1ccc([N+](=O)[O-])cc1
Result: 91 % of control

Request: Another compound to check: CN(C)CC[CH2][Sn]([CH2]CCN(C)C)([CH2]CCN(C)C)[CH2]CCN(C)C
Result: 105 % of control

Request: // repeat for O=[N+]([O-])c1cnc2ccccn12 and report
Result: 94 % of control

Request: Try this compound next: COc1ccc(CSC(=S)Nc2cccc(S(F)(F)(F)(F)F)c2)cc1
Result: 100 % of control

* * *

tested on: P388 leukemia ip, CD2F1 mice, survival T/C; assay: NCI In Vivo Anticancer Drug Screen. Data for tumor model P388 Leukemia (intraperitoneal) in CD2F1 (CDF1) mice; conditions: endpoint: median survival time; dose: 25.0 mg/kg/injection; schedule: Q01DX001 (ip); vehicle: saline with Tween-80; higher = longer survival
Toxic doses and inconclusive results are not listed.
Hi there, I'd appreciate the recorded T/C for every entry that follows.

Request: Tell me the measured T/C of CC1C2COCC2CC2OC21 (centres undefined) , please.
Result: 104 % of control

Request: Next record, please: CC1=CCc2c(c(NS(=O)(=O)c3ccccc3)c3ccccc3c2NS(=O)(=O)c2ccccc2)C1
Result: 105 % of control

Request: Lookup CC12CCC(Cl)CC1=CCC1C2CCC2(C)C1CCCN2CCCl (centres undefined)
Result: 109 % of control

Request: Proceed to O=[N+]([O-])c1ccc(SNc2ccc(NSc3ccc([N+](=O)[O-])cc3)cc2)cc1
Result: 100 % of control

Attribution: PubChem BioAssay AID330
